In this section we review reported ΔTm values for a set of molecules.
system_name: Speckle-type POZ protein (Homo sapiens) (UniProt O43791)
Sequence (O43791 whole entry, the tested form may be a part): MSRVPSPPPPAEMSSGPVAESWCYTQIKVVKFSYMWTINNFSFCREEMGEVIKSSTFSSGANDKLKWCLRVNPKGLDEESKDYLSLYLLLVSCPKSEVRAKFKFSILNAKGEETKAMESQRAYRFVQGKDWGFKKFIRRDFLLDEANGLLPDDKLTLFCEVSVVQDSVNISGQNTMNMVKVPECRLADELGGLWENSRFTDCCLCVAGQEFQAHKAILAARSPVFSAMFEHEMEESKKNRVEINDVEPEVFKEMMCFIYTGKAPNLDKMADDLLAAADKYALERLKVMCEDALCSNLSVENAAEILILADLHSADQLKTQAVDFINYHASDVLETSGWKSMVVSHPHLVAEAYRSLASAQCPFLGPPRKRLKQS
protocol_description: Binding affinity to recombinant N-terminal GST/His-tagged MATH binding domain SPOP (unknown origin) expressed in Escherichia coli BL21 (DE3) assessed as change in melting temperature at 20 fold compound incubated for 15 mins by nano differential scanning fluorimetry (reference value: -3.8 degreeC)
A number alone suffices; assume °C.

# example entries with known answers
[
  {
    "chemical_string": "Cc1cccn2c(=O)c3cc(C(=O)NCCCN4CCOCC4)c(=N)n(CCc4ccc(Cl)cc4)c3nc12",
    "unit": "°C",
    "ΔTm": 3.5
  },
  {
    "chemical_string": "Cc1cccn2c(=O)c3cc(C(=O)NCCCN4CCOCC4)c(=N)n(CCc4ccc(F)cc4)c3nc12",
    "unit": "°C",
    "ΔTm": 2.9
  },
  {
    "chemical_string": "Cc1cccn2c(=O)c3cc(C(=O)NC4CCCCC4)c(=N)n(CCc4cccs4)c3nc12",
    "unit": "°C",
    "ΔTm": 2.7
  },
  {
    "chemical_string": "CCOC(=O)c1cc2c(=O)n3cccc(C)c3nc2n(-c2ccc(F)cc2)c1=N",
    "unit": "°C",
    "ΔTm": 1.9
  },
  {
    "chemical_string": "Cc1cccn2c(=O)c3cc(C(=O)NCCN4CCN(C)CC4)c(=N)n(CCc4cccs4)c3nc12",
    "unit": "°C",
    "ΔTm": 3.5
  }
]

## Task # get_value(readout='ΔTm', item= Cc1cccn2c(=O)c3cc(C(=O)NCCc4ccccc4)c(=N)n(CCc4cccs4)c3nc12 )
## Result 3.7

## Task Recorded ΔTm for Cc1cccn2c(=O)c3cc(C(=O)NCCCc4ccccc4)c(=N)n(CCc4cccs4)c3nc12 , please?
## Result 2.6

## Task Would you kindly share the measured ΔTm for CCOC(=O)c1cc2c(=O)n3cccc(C)c3nc2n(CCc2cccs2)c1=N ?
## Result 5.3

## Task I am curious: what ΔTm value has been reported for COc1ccc(CCn2c(=N)c(C(=O)NCCCN3CCOCC3)cc3c(=O)n4cccc(C)c4nc32)cc1 ?
## Result 3.6

## Task So what's the measured ΔTm for this one? CCOC(=O)c1cc2c(=O)n3cccc(C)c3nc2n(CCc2ccc(C)cc2)c1=N
## Result 1.5

# credit: ChEMBL document CHEMBL4402603
